System: Left cardiac atrium
experimental_details: Negative inotropic activity in guinea pig left atrium assessed as decrease in developed tension at 0.001 to 100 uM relative to control
Type: ADME, tissue-based
conditions: Cavia porcellus
pEC50: −log10 of the molar value.
measure: pEC50

- smiles_str: "CCOC(=O)C1=C(C)NC(C)=C(C(=O)OCC)C1c1c(-c2cc(OC)ccc2OC)nc2sc(Br)cn12"
  measure: "pEC50"
  endpoint_value: 7.59
- smiles_str: "CCOC(=O)C1=C(C)NC(C)=C(C(=O)OCC)C1c1c(-c2ccc(Br)c([N+](=O)[O-])c2)nc2sccn12"
  measure: "pEC50"
  endpoint_value: 5.90
- smiles_str: "CCOC(=O)C1=C(C)NC(C)=C(C(=O)OCC)C1c1c(-c2ccc(F)cc2)nc2sccn12"
  measure: "pEC50"
  endpoint_value: 7.19
- smiles_str: "CCOC(=O)C1=C(C)NC(C)=C(C(=O)OCC)C1c1c(-c2cc([N+](=O)[O-])c(Cl)cc2Cl)nc2sc(Cl)cn12"
  measure: "pEC50"
  endpoint_value: 7.09

----------
target_entity: Voltage-gated L-type calcium channel (Rattus norvegicus, UniProt P22002+Q02485+P27732)
experimental_details: Inhibition of voltage-dependent L-type calcium channel in Wistar rat brain slices assessed as protection against oxygen glucose deprivation/reperfusion-induced injury by measuring recovery of LDH release at 20 uM administered at onset of reperfusion period measured after 90 mins by spectrophotometric assay relative to control
Design: scale not given: the % may be the effect or the level left
conditions: 1.5 h
measure: Activity (%)

- smiles_str: "CCOC(=O)C1=C(C)NC(C)=C(C(=O)OCC)C1c1c(-c2ccc(Br)c([N+](=O)[O-])c2)nc2sccn12"
  measure: "Activity"
  relation: "<"
  endpoint_value: 5
- smiles_str: "C=CCOC(=O)C1=C(C)NC(C)=C(C(=O)OCC=C)C1c1c(-c2cc(OC)c([N+](=O)[O-])cc2OC)nc2sccn12"
  measure: "Activity"
  relation: "="
  endpoint_value: 51.2
- smiles_str: "CCOC(=O)C1=C(C)NC(C)=C(C(=O)OCC)C1c1c(-c2cc(F)c(F)cc2F)nc2sccn12"
  measure: "Activity"
  relation: "<"
  endpoint_value: 5
- smiles_str: "CCOC(=O)C1=C(C)NC(C)=C(C(=O)OCC)C1c1c(-c2cc(OC)ccc2OC)nc2sccn12"
  measure: "Activity"
  relation: "="
  endpoint_value: 87
- smiles_str: "CCOC(=O)C1=C(C)NC(C)=C(C(=O)OCC)C1c1c(-c2cc(OC)ccc2OC)nc2sc(Br)cn12"
  measure: "Activity"
  relation: "<"
  endpoint_value: 5
- smiles_str: "COC(=O)C1=C(C)NC(C)=C(C(=O)OC)C1c1c(-c2cc(OC)ccc2OC)nc2sccn12"
  measure: "Activity"
  relation: "="
  endpoint_value: 83.9
- smiles_str: "CCOC(=O)C1=C(C)NC(C)=C(C(=O)OCC)C1c1c(-c2cc([N+](=O)[O-])c(Cl)cc2Cl)nc2sc(CC)cn12"
  measure: "Activity"
  relation: "="
  endpoint_value: 18
- smiles_str: "CCOC(=O)C1=C(C)NC(C)=C(C(=O)OCC)C1c1c(-c2ccc([N+](=O)[O-])cc2)nc2sc(F)cn12"
  measure: "Activity"
  relation: "="
  endpoint_value: 23.3

----------
target_entity: Voltage-gated L-type calcium channel (Homo sapiens, UniProt Q13936+Q13698+Q01668+O60840)
experimental_details: Inhibition of voltage-dependent L-type calcium channel in human SH-SY5Y cells assessed as protection against glutamate-induced excitotoxicity by measuring recovery of cell viability at 1 uM measured after 24 hrs by alamar blue-based fluorescence method relative to control
# Activity per record follows
measure: Activity

- smiles_str: "CCOC(=O)C1=C(C)NC(C)=C(C(=O)OCC)C1c1c(-c2ccc(Cl)c([N+](=O)[O-])c2)nc2sc(C)cn12"
  endpoint_value: "< 5%"
- smiles_str: "COC(=O)C1=C(C)NC(C)=C(C(=O)OC)C1c1c(-c2cc(Br)c(OC)cc2OC)nc2sccn12"
  endpoint_value: "< 5%"
- smiles_str: "CCOC(=O)C1=C(C)NC(C)=C(C(=O)OCC)C1c1c(-c2ccc(F)cc2)nc2sc(Br)cn12"
  endpoint_value: "< 5%"

----------
# Activity per record follows
target_entity: Voltage-gated L-type calcium channel (Rattus norvegicus, UniProt P22002+Q02485+P27732)
experimental_details: Inhibition of voltage-dependent L-type calcium channel in Wistar rat brain slices assessed as protection against oxygen glucose deprivation/reperfusion-induced injury by measuring recovery of edema formation at 20 uM administered at onset of reperfusion period measured after 90 mins relative to control
Parameters: scale not given: the % may be the effect or the level left
conditions: 1.5 h
measure: Activity (%)

- smiles_str: "CCOC(=O)C1=C(C)NC(C)=C(C(=O)OCC)C1c1c(-c2cc([N+](=O)[O-])c(Cl)cc2Cl)nc2sc(CC)cn12"
  measure: "Activity"
  unit_descriptor: "%"
  relation: "<"
  endpoint_value: 5
- smiles_str: "COC(=O)C1=C(C)NC(C)=C(C(=O)OC)C1c1c(C(F)(F)F)nc2sccn12"
  measure: "Activity"
  unit_descriptor: "%"
  relation: "="
  endpoint_value: 105.4
- smiles_str: "CCOC(=O)C1=C(C)NC(C)=C(C(=O)OCC)C1c1c(-c2ccc(F)c(F)c2)nc2sccn12"
  measure: "Activity"
  unit_descriptor: "%"
  relation: "="
  endpoint_value: 80.5
- smiles_str: "CCOC(=O)C1=C(C)NC(C)=C(C(=O)OCC)C1c1c(-c2cc(F)c(F)cc2F)nc2sccn12"
  measure: "Activity"
  unit_descriptor: "%"
  relation: "<"
  endpoint_value: 5
- smiles_str: "COC(=O)C1=C(C)NC(C)=C(C(=O)OC)C1c1c(-c2ccc(OC(F)(F)F)cc2)nc2sccn12"
  measure: "Activity"
  unit_descriptor: "%"
  relation: "="
  endpoint_value: 93.8
- smiles_str: "C=CCOC(=O)C1=C(C)NC(C)=C(C(=O)OCC=C)C1c1c(-c2cc(OC)c([N+](=O)[O-])cc2OC)nc2sccn12"
  measure: "Activity"
  unit_descriptor: "%"
  relation: "="
  endpoint_value: 82

----------
System: Right cardiac atrium
experimental_details: Negative chronotropic activity in guinea pig spontaneously beating right atrium assessed as decrease in atrial rate at 10^-5 M relative to control
Type: ADME, tissue-based, Cavia porcellus
Set-up: scale not given: the % may be the effect or the level left
conditions: 10 µM
# Activity per record follows

- smiles_str: "CCOC(=O)C1=C(C)NC(C)=C(C(=O)OCC)C1c1c(-c2cc(OC)cc(OC)c2)nc2sc(Br)cn12"
  target_entity: "Right cardiac atrium"
  Activity: "80%"
- smiles_str: "CCOC(=O)C1=C(C)NC(C)=C(C(=O)OCC)C1c1c(-c2ccccc2F)nc2sccn12"
  target_entity: "Right cardiac atrium"
  Activity: "86%"
- smiles_str: "CCOC(=O)C1=C(C)NC(C)=C(C(=O)OCC)C1c1c(-c2ccc(F)cc2)nc2sc(Br)cn12"
  target_entity: "Right cardiac atrium"
  Activity: "25%"
- smiles_str: "CCOC(=O)C1=C(C)NC(C)=C(C(=O)OCC)C1c1c(-c2ccc(OC(F)(F)F)cc2)nc2sc(Br)cn12"
  target_entity: "Right cardiac atrium"
  Activity: "35%"
- smiles_str: "CCOC(=O)C1=C(C)NC(C)=C(C(=O)OCC)C1c1c(-c2cc(OC)ccc2OC)nc2sc(C)cn12"
  target_entity: "Right cardiac atrium"
  Activity: "78%"
